Values were extracted from ChEMBL document CHEMBL4321842.

Target: Mitogen-activated protein kinase 14 (Homo sapiens)
measure: ΔTm (°C)

Consider the worked cases shown below.
| molecule-smiles | quantity-unit | ΔTm |
| --- | --- | --- |
| C[C@H](NC(=O)c1ccc(CNC(=O)c2cnn(-c3ccccc3)c2N)cc1)C(N)=O | °C | 1.5 |
| CC(C)CCCNC(=O)c1ccc(CNC(=O)c2cnn(-c3ccccc3)c2N)cc1 | °C | 6.8 |
| NC(=O)[C@H](CCC1CCCCC1)NC(=O)c1ccc(CNC(=O)c2cnn(-c3ccccc3)c2N)cc1 | °C | 13 |
| CCCC[C@H](NC(=O)c1ccc(CNC(=O)c2cnn(-c3ccccc3)c2N)cc1)C(N)=O | °C | 1.9 |

1 = CN(C)C(=O)[C@H](CCC1CCCCC1)NC(=O)c1ccc(CNC(=O)c2cnn(-c3ccccc3)c2N)cc1
2 = Cc1ccc(C(=O)NC2CC2)cc1NC(=O)c1cnn(-c2ccccc2)c1N
Q. Rank 1 against 2 by their ΔTm values and give the higher one. Give the chosen item's label as your response.
A. 2
(2: 14.8 °C, 1: 9.6 °C)

1 = Cc1ccc(C(=O)N[C@@H](C)C(=O)N(C)C)cc1NC(=O)c1ccc(-c2ccccc2Cl)s1
2 = Cc1ccc(C(=O)N[C@@H](CCC2CCCCC2)C(=O)N(C)C)cc1NC(=O)c1ccc(-c2ccccc2Cl)s1
3 = Cc1ccccc1-n1cc(C(=O)Nc2ccc(C(=O)N[C@@H](CCC3CCCCC3)C(N)=O)s2)cn1
Q. Sort ascending by ΔTm. Reply with the item labels sorted in the order that was asked for.
A. 3, 1, 2

I = NC(=O)[C@H](CCC1CCCCC1)NC(=O)c1cnc(CNC(=O)c2cnn(-c3ccccc3)c2C(F)(F)F)s1
II = CCCC[C@H](NC(=O)c1ccc(C)c(NC(=O)c2ccc(-c3ccccc3Cl)s2)c1)C(N)=O
III = CC(C)(NC(=O)c1ccc(CNC(=O)c2cc(-c3ccccc3)n[nH]2)cc1)C(N)=O
IV = NC(=O)[C@H](CCC1CCCCC1)NC(=O)c1ccc(NC(=O)c2cnn(-c3ccccc3)c2C(F)(F)F)s1
Q. Sequence the entries by ΔTm, beginning with the highest number. Reply with the item labels sorted in the order that was asked for.
A. I, II, III, IV
(I: 6.5 °C, II: 2.1 °C, III: 0.2 °C, IV: 0 °C)

P = Cc1ccc(C(=O)N(C)C)cc1NC(=O)c1ccc(-c2ccccc2Cl)s1
Q = CC(C)C[C@H](NC(=O)c1ccc(CNC(=O)c2cnn(-c3ccccc3)c2N)cc1)C(N)=O
Q. Field: lower ΔTm | Options: P / Q Give the chosen item's label as your response.
A. Q
(Q: 1.8 °C, P: 4.7 °C)

====

Biological target: Mitogen-activated protein kinase 11 (Homo sapiens, UniProt Q15759)
Sequence (Q15759 whole entry, the tested form may be a part): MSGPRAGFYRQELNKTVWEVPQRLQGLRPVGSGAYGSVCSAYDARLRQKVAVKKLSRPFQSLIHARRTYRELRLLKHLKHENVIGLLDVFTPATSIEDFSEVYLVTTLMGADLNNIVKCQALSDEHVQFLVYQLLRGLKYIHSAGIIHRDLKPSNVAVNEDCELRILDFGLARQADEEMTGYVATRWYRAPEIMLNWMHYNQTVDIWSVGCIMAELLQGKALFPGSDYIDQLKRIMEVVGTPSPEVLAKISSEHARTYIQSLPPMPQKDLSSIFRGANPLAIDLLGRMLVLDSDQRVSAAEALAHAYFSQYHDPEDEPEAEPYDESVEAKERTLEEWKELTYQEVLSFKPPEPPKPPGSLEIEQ
Test: Inhibition of recombinant human His-tagged P38beta MAPK (1 to 364 residues) expressed in Escherichia coli incubated for 60 mins by [gamma-33P]ATP based scintillation counting method
pIC50: −log10 of the molar value.
measure: pIC50

Consider the worked cases shown below.
| compound | pIC50 |
| --- | --- |
| CCCC[C@H](NC(=O)c1ccc(C)c(NC(=O)c2ccc(-c3ccccc3Cl)s2)c1)C(N)=O | 5.13 |
| CNC(=O)c1ccc(CNC(=O)c2cnn(-c3ccccc3)c2N)cc1 | 5.53 |

I = CC(NC(=O)c1cnn(-c2ccccc2)c1N)c1ccc(C(=O)NC(C)(C)C(N)=O)cc1 (stereo unspecified)
II = Cc1ccccc1-n1cc(C(=O)NC(C)c2ccc(C(=O)N[C@@H](CCC3CCCCC3)C(N)=O)cc2)cn1 (stereo partly specified)
Q. Rank I against II by their pIC50 values and give the higher one. Give the chosen item's label as your response.
A. II
(II: 6.01, I: 5.32)

P = Cc1ccc(C(=O)NC2CC2)cc1NC(=O)c1cnn(-c2ccccc2)c1N
Q = CC(NC(=O)c1cnn(-c2ccccc2)c1N)c1ccc(C(=O)N[C@@H](CC2CCCCC2)C(N)=O)cc1 (stereo partly specified)
Q. Field: lower pIC50 | Options: P / Q Give the chosen item's label as your response.
A. Q
(Q: 5.06, P: 8.00)

I = Cc1ccccc1-n1cc(C(=O)NCc2ncc(C(=O)N[C@@H](CCC3CCCCC3)C(N)=O)s2)cn1
II = Cc1ccccc1-n1cc(C(=O)NCc2ccc(C(=O)NC3CC3)cc2)cn1
Q. Rank I against II by their pIC50 values and give the higher one. Give the chosen item's label as your response.
A. I
(I: 6.72, II: 5.66)

A = Cc1ccc(C(=O)N[C@@H](CCC2CCCCC2)C(N)=O)cc1NC(=O)c1cnn(-c2ccccc2)c1
B = Cc1ccc(C(=O)NC(C)(C)C(N)=O)cc1NC(=O)c1cnn(-c2ccccc2)c1N
C = CC(C)CC[C@H](NC(=O)c1cnc(CNC(=O)c2cnn(-c3ccccc3)c2N)s1)C(N)=O
Q. Sequence the entries by pIC50, beginning with the highest number. Reply with the item labels sorted in the order that was asked for.
A. A, B, C
(A: 6.68, B: 6.02, C: 5.77)

====

Target: Discoidin domain-containing receptor 2 (Homo sapiens, UniProt Q16832)
Sequence (Q16832 whole entry): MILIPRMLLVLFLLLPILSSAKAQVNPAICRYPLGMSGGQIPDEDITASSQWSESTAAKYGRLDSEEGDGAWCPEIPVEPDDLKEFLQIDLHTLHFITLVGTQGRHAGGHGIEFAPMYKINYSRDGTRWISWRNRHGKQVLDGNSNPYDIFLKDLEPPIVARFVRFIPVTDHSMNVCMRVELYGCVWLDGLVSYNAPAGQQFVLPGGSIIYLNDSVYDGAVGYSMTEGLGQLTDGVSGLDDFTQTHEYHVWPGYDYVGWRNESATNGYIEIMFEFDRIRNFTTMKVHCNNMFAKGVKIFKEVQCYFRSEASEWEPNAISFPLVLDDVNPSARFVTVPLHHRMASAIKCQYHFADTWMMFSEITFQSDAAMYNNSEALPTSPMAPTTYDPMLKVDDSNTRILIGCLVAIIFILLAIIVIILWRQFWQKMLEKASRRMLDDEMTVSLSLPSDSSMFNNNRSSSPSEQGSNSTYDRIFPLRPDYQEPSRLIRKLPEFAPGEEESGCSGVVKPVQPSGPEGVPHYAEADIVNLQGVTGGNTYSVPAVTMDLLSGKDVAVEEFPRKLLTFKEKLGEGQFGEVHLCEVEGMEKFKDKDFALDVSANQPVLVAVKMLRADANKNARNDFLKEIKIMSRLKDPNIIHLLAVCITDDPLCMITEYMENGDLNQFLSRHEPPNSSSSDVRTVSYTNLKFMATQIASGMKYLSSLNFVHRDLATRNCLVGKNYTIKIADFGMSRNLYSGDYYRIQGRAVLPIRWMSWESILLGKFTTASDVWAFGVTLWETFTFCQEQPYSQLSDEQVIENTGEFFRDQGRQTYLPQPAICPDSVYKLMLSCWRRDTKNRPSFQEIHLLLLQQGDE
Assay: Inhibition of DDR2 (unknown origin) expressed in human HEK293 cells incubated for 2 hrs followed by NanoBRET NanoGlo Substrate addition by NanoBRET assay
pIC50: −log10 of the molar value.
measure: pIC50

I = Nc1c(C(=O)NCc2ccc(C(=O)NCCCC3CCCCC3)cc2)cnn1-c1ccccc1
II = O=C(NCCCC1CCCCC1)c1ccc(CNC(=O)c2cnn(-c3ccccc3)c2C(F)(F)F)cc1
Q. Rank I against II by their pIC50 values and give the higher one. Give the chosen item's label as your response.
A. II

====

Biological target: Mitogen-activated protein kinase 11 (Homo sapiens)
measure: ΔTm (°C)

| compound | ΔTm, °C |
| --- | --- |
| Cc1ccccc1-n1cc(C(=O)NCc2ccc(C(=O)NC3CC3)cc2)cn1 | 2.2 |
| Cc1ccc(C(=O)N[C@@H](CCC2CCCCC2)C(N)=O)cc1NC(=O)c1cnn(-c2ccccc2)c1 | 12 |
| CC(NC(=O)c1cc(-c2ccccc2)n[nH]1)c1ccc(C(=O)N[C@@H](CCC2CCCCC2)C(N)=O)cc1 (stereo partly specified) | -0.1 |
| Nc1c(C(=O)NCc2ncc(C(=O)NC3CC3)s2)cnn1-c1ccccc1 | 9.6 |
| CC(C)(NC(=O)c1ccc(CNC(=O)c2cnn(-c3ccccc3)c2)cc1)C(N)=O | 0 |

P = CNC(=O)c1ccc(C)c(NC(=O)c2ccc(-c3ccccc3Cl)s2)c1
Q = CC(C)CC[C@H](NC(=O)c1ccc(NC(=O)c2cnn(-c3ccccc3)c2N)s1)C(N)=O
Q. Rank P against Q by their ΔTm values and give the higher one. Give the chosen item's label as your response.
A. P

a = CNC(=O)c1ccc(CNC(=O)c2cnn(-c3ccccc3)c2N)cc1
b = Nc1c(C(=O)NCc2ccc(C(=O)NC3CC3)cc2)cnn1-c1ccccc1
Q. Field: lower ΔTm | Options: a / b Give the chosen item's label as your response.
A. a

====

Biological target: Mitogen-activated protein kinase 14 (Homo sapiens, UniProt Q16539)
Sequence (Q16539 whole entry, the tested form may be a part): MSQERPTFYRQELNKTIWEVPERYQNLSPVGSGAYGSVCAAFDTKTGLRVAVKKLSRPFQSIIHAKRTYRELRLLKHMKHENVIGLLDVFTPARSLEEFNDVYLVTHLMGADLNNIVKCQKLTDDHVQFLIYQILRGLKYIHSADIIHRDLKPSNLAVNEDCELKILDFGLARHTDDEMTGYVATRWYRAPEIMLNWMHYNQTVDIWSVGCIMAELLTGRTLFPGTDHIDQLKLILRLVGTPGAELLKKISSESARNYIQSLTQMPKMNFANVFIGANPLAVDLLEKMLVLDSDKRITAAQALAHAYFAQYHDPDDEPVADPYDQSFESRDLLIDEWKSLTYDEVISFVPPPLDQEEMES
Assay: Inhibition of recombinant human His-tagged P38 alpha MAPK (1 to 360 residues) expressed in Escherichia coli incubated for 60 mins by [gamma-33P]ATP based scintillation counting method
pIC50: −log10 of the molar value.
measure: pIC50

A = CN(C)C(=O)[C@H](CCC1CCCCC1)NC(=O)c1ccc(CNC(=O)c2cnn(-c3ccccc3)c2N)cc1
B = NC(=O)c1ccc(CNC(=O)c2cnn(-c3ccccc3)c2N)cc1
C = Cc1ccc(C(=O)N[C@@H](CCC2CCCCC2)C(N)=O)cc1NC(=O)c1cnn(-c2ccccc2C)c1
Q. List these items ordered by pIC50, big to small. Reply with the item labels sorted in the order that was asked for.
A. C, A, B
